assay: Protection index, ratio of TD50 for neurotoxicity by motor impairment in Kunming mouse to ED50 for protection against maximal electroshock-induced seizures in ip dosed Kunming mouse; type: toxicity, organism-based; conditions: in vivo, read-out: Ratio TD50/ED50
Measured selectivity ratio values are reported for all entries that follow.

Reference set (3 entries):
In [3]: df
Out[3]:
                                  structure  parameter_measured  result
0  Cc1ccc(CN2CC/C(=C\c3ccc4c(c3)OCO4)C2=O)cc1   selectivity ratio    26.5
1  O=C1/C(=C/c2ccc3c(c2)OCO3)CCN1Cc1cccc(C(F)(F)F)c1   selectivity ratio    37.4
2  O=C1/C(=C/c2ccc3c(c2)OCO3)CCN1Cc1ccccc1F   selectivity ratio    42.6

Can you look up the measured selectivity ratio of `O=C1NCC/C1=C\c1ccc2c(c1)OCO2` for me?
10.4

* * *

target: Nav1.1 (Homo sapiens, UniProt P35498); test: Inhibition of human Nav1.1 expressed in CHO-K1 cells assessed as state-dependent block at 10 uM at holding potential of -120 mV incubated for 30 mins prior to testing measured every 20 seconds by whole-cell patch clamp method; type: cell-based; conditions: CHO-K1 cells expressing human Nav1.1
parameter measured: inhibition at 0.5 h, 10 µM (%)
Please reply with the bare figure in % and do not write the unit itself.

I would be grateful if you could share the reported inhibition at 0.5 h, 10 µM for `O=C1/C(=C/c2ccc3c(c2)OCO3)CCN1Cc1cccc(C(F)(F)F)c1` .
19.5

Ref: ChEMBL document CHEMBL4219152
